Each recorded value in this set is attributed to patent US9776962B2.

# MEASUREMENT_TARGET: human GPR40 (Homo sapiens, UniProt O14842)
# Construct: expressed in transfected cells
# Sequence (O14842 whole entry): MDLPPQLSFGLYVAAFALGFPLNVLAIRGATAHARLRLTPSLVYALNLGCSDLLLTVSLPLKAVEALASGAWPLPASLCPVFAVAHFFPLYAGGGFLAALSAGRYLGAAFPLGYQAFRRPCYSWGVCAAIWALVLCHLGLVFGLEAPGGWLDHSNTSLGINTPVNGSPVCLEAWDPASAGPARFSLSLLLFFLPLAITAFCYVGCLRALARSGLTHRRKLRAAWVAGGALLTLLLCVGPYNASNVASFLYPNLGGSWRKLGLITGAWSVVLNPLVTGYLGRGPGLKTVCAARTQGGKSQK
# PROTOCOL_DESCRIPTION: Evaluation of human GPR40 agonist activity with increase in intracellular Ca2+ concentration as an index (FLIPR)
# Assay type: cell-based
# DETAILS: test compound 1 μM; CHO(dhfr−) cells stably expressing human GPR40; 100% = 10 μM compound of Example 153, 0% = DMSO
PARAMETER_MEASURED: activation at 1 µM (%)
Please give a number only; it is taken to be in %.

activation at 1 µM for human GPR40 (Homo sapiens, UniProt O14842) with input CCc1ccc(C(=O)N(CC(C)(C)C)c2cccc(C)n2)c(N2CCC(COc3cccc(C(CC(=O)O)C4CC4)c3)CC2)c1 (stereo not shown) equals 84

Summary: Cc1cccc(N(CC(C)(C)C)C(=O)c2c(F)cc(Cl)cc2N2CCC(COc3cc(C(CC(=O)O)C4CC4)ccn3)CC2)n1 (stereo not shown) , human GPR40 (Homo sapiens, UniProt O14842), activation at 1 µM = 85

// assay human GPR40 (Homo sapiens, UniProt O14842), entry COc1ccc(C(=O)N(CC(F)(F)F)c2cncc(C)c2)c(N2CCC(COc3cc(C(CC(=O)O)C4CC4)ccn3)CC2)c1 (stereo not shown) , activation at 1 µM value = 90

Value sought: activation at 1 µM, system human GPR40 (Homo sapiens, UniProt O14842), item COc1ccc(C(=O)NCC(F)(F)C(F)(F)F)c(N2CCC(COc3cc(C(CC(=O)O)C4CC4)ccn3)CC2)c1 (stereo not shown) . Result: 81

Entry Cc1cccc(N(CC(C)(C)C)C(=O)c2ccc(OC(F)F)cc2N2CCC(COc3cc(C(CC(=O)O)C4CC4)ccn3)CC2)n1 (stereo not shown) : activation at 1 µM on human GPR40 (Homo sapiens, UniProt O14842) = 96

I looked up COc1cc(N2CCC(COc3cc(C(CC(=O)O)C4CC4)ccn3)CC2)c(C(=O)N(CC(C)(C)C)c2cc(C)ncn2)cn1 (stereo not shown) and its activation at 1 µM for human GPR40 (Homo sapiens, UniProt O14842) was 98

Value (activation at 1 µM, human GPR40 (Homo sapiens, UniProt O14842)) for record COc1ccc(C(=O)N(CC(C)(C)C)c2cccc(C)n2)c(N2CCC(COc3cc(C(CC(=O)O)C4CC4)c(F)cn3)CC2)c1 (stereo not shown) = 104

Form field, activation at 1 µM with human GPR40 (Homo sapiens, UniProt O14842), item COc1cc(N2CCC(COc3cc(C(CC(=O)O)C4CC4)ccn3)CC2)c(C(=O)N(CC(C)(C)C)c2cc(C)nc(C)n2)cn1 (stereo not shown) : 107

Measured activation at 1 µM (human GPR40 (Homo sapiens, UniProt O14842)), entry COc1c(F)cc(C(=O)N(CC(C)(C)C)c2cccc(C)n2)c(N2CCC(COc3cc(C(CC(=O)O)C4CC4)ccn3)CC2)c1F (stereo not shown) : 74

Known value: human GPR40 (Homo sapiens, UniProt O14842) activation at 1 µM of the compound COc1ccc(C(=O)N(CC(C)(C)C)C2CCCC2)c(N2CCC(COc3cc(C(CC(=O)O)C4CC4)ccn3)CC2)c1 (stereo not shown) equals 94

The value of activation at 1 µM recorded for COc1ccc(C(=O)N(CC(C)(C)C)c2cc(C)cc(C)n2)c(N2CCC(COc3cc(C(CC(=O)O)C4CC4)ccn3)CC2)c1 (stereo not shown) when tested on human GPR40 (Homo sapiens, UniProt O14842) reads 101

The value of activation at 1 µM recorded for COc1ccc(C(=O)N(CC2CC2)c2cc(C)ccn2)c(N2CCC(COc3cc(C(CC(=O)O)C4CC4)ccn3)CC2)c1 (stereo not shown) when tested on human GPR40 (Homo sapiens, UniProt O14842) reads 95

Form field activation at 1 µM for item COc1ccc(C(=O)N(CC(C)C)c2cc(C)ccn2)c(N2CCC(COc3cc(C(CC(=O)O)C4CC4)ccn3)CC2)c1 (stereo not shown) on human GPR40 (Homo sapiens, UniProt O14842): 99
